System: HDAC4
Test: HDAC4 enzyme activity in nuclear extracts of human tumor xenografts of treated mice
Conditions used: SMMC7721 tumor grown in vivo; second value of the pair HDAC3 and HDAC4; SAHA 25 mg/kg
Measurement type: decrease of HDAC4 enzyme activity/inhibition rate

Kindly indicate its recorded decrease of HDAC4 enzyme activity/inhibition rate. Item: CCNC(=O)CC[C@@H](NC(=O)c1cc2cc(Cl)ccc2oc1=O)C(=O)OCC [Compound Ic]
67%*(SMMC-7721);

Quick one: give measured decrease of HDAC4 enzyme activity/inhibition rate for CCNC(=O)CCC(NC(=O)c1cc2ccccc2oc1=O)C(=O)OC (centres unmarked) [Compound Ia]
58%*(SMMC7721)

Provide only the value of recorded decrease of HDAC4 enzyme activity/inhibition rate for CCNC(=O)CCC(NC(=O)c1cc2cc(F)ccc2oc1=O)C(=O)OCC (stereo in doubt) [Compound Ie]
65%*(SMMC7721);

Note decrease of HDAC4 enzyme activity/inhibition rate for the molecule shown: CCNC(=O)CC[C@@H](NC(=O)c1cc2cc(Br)ccc2oc1=O)C(=O)OCC [Compound Id]
67%*(SMMC7721);

Give a short answer stating reported decrease of HDAC4 enzyme activity/inhibition rate for CCNC(=O)CCC(NC(=O)c1cc2ccccc2oc1=O)C(=O)OCC (centres unmarked) [Compound Ib] .
61%*(SMMC-7721)

Find the measured decrease of HDAC4 enzyme activity/inhibition rate of CCNC(=O)CCC(NC(=O)c1cc2cc([N+](=O)[O-])ccc2oc1=O)C(=O)OCC (stereo in doubt) [Compound If] and report it.
68%*(SMMC7721);

Answer with the recorded decrease of HDAC4 enzyme activity/inhibition rate of CCNC(=O)CC[C@@H](NC(=O)c1cc2cc(Br)cc(Br)c2oc1=O)C(=O)OCC [Compound Ih] only.
62%*(SMMC7721);

Return the recorded decrease of HDAC4 enzyme activity/inhibition rate value; entry: CCNC(=O)CC[C@@H](NC(=O)c1cc2cc(Cl)cc(Cl)c2oc1=O)C(=O)OCC [Compound Ig]
64%*(SMMC7721);
